EXPERIMENT: mtPTP inhibition via calcium retention, dose response, biochemical, dry powder samples, uHTS hits, Calcium Green-5N (AID 743360)
CONDITION: isolated mitochondria, Ca retention capacity
Active and inactive are the calls of the source.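 Rule for the calls: active = calcium retention capacity relative to untreated control above about 1.1 ratio (limit read from the data); inactive = the rest.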
QUANTITY_MEASURED: CRC/CRC0 ratio at 12.5 uM (higher = more inhibition)

CN1CCN(Cc2ccc(NS(=O)(=O)c3ccc(F)c(Cl)c3)cc2)CC1; 1.07 (inactive)
COc1ccc(Cl)cc1S(=O)(=O)Nc1ccc(N2CCN(C)CC2)cc1; 1.03 (inactive)

Q: I am curious: what CRC/CRC0 ratio at 12.5 uM (higher = more inhibition) value has been reported for COc1ccc(Cl)c(C(=O)Nc2ccc(CCN3CCOCC3)cc2)c1 ?
Ans: > 1 (inactive)
